Assign shrunken log2 fold change to each entry below.
# System: Escherichia coli TOP10
# METHOD_DESCRIPTION: shrunken log2 fold change of peptide-encoding DNA abundance (4.5 h post-induction vs induction); higher = less antimicrobial activity (less host growth inhibition)
# RECORDED_CONDITIONS: time post-induction: 4.5 h; library: site-saturation at positions 5, 18, 19, 20

BIOSEQUENCE: RRIRNRPPRLPRPRPRPQQIPRP
ASSAYED_TARGET: Escherichia coli TOP10
shrunken log2 fold change: -0.23
//
BIOSEQUENCE: RRIRGRPPRLPRPRPRPWIGPRP
ASSAYED_TARGET: Escherichia coli TOP10
shrunken log2 fold change: 0.0233
//
BIOSEQUENCE: RRIRPRPPRLPRPRPRPVMFPRP
ASSAYED_TARGET: Escherichia coli TOP10
shrunken log2 fold change: 0.885
//
BIOSEQUENCE: RRIRNRPPRLPRPRPRPEWVPRP
ASSAYED_TARGET: Escherichia coli TOP10
shrunken log2 fold change: 0.0314

Pending sequence:
-- ask Enter reported shrunken log2 fold change observed with Escherichia coli TOP10 for `RRIRARPPRLPRPRPRPMEVPRP`
-- reply -0.0122

###

# Test system: Escherichia coli TOP10
# METHOD_DESCRIPTION: shrunken log2 fold change of peptide-encoding DNA abundance (4.5 h post-induction vs induction); higher = less antimicrobial activity (less host growth inhibition)
# RECORDED_CONDITIONS: time post-induction: 4.5 h; library: site-saturation at positions 5, 18, 19, 20
MEASUREMENT_NAME: shrunken log2 fold change

These solved cases illustrate the format of a correct answer.
BIOSEQUENCE: RRIRQRPPRLPRPRPRPSQAPRP
shrunken log2 fold change: 0.103

BIOSEQUENCE: RRIRLRPPRLPRPRPRPLFMPRP
shrunken log2 fold change: -0.546

-- ask I would be grateful if you could share the reported shrunken log2 fold change for `RRIRKRPPRLPRPRPRPPNQPRP` .
-- reply 0.17

###

# Test system: Escherichia coli TOP10
# METHOD_DESCRIPTION: shrunken log2 fold change of peptide-encoding DNA abundance (4.5 h post-induction vs induction); higher = less antimicrobial activity (less host growth inhibition)
# RECORDED_CONDITIONS: time post-induction: 4.5 h; library: site-saturation at positions 5, 18, 19, 20
Assign shrunken log2 fold change to each entry below.
One number for each entry.

These solved cases illustrate the format of a correct answer.
BIOSEQUENCE: RRIRTRPPRLPRPRPRPACQPRP
ASSAYED_TARGET: Escherichia coli TOP10
MEASUREMENT_NAME: shrunken log2 fold change
EXPERIMENTAL_VALUE: 0.0771

BIOSEQUENCE: RRIRHRPPRLPRPRPRPYLCPRP
ASSAYED_TARGET: Escherichia coli TOP10
MEASUREMENT_NAME: shrunken log2 fold change
EXPERIMENTAL_VALUE: -0.0059

BIOSEQUENCE: RRIRYRPPRLPRPRPRPDDKPRP
ASSAYED_TARGET: Escherichia coli TOP10
MEASUREMENT_NAME: shrunken log2 fold change
EXPERIMENTAL_VALUE: -1.56

BIOSEQUENCE: RRIRERPPRLPRPRPRPLLSPRP
ASSAYED_TARGET: Escherichia coli TOP10
MEASUREMENT_NAME: shrunken log2 fold change
EXPERIMENTAL_VALUE: -0.206

BIOSEQUENCE: RRIRRRPPRLPRPRPRPSGIPRP
ASSAYED_TARGET: Escherichia coli TOP10
MEASUREMENT_NAME: shrunken log2 fold change
EXPERIMENTAL_VALUE: -0.0479

BIOSEQUENCE: RRIRVRPPRLPRPRPRPSGKPRP
ASSAYED_TARGET: Escherichia coli TOP10;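 note: peptides expressed intracellularly from a pBAD plasmid library in pooled LB shake-flask culture, induced with 0.3% L-arabinose, DNA abundance read by NGS, three biological replicates, DESeq2 with apeglm shrinkage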
MEASUREMENT_NAME: shrunken log2 fold change
EXPERIMENTAL_VALUE: 0.0575

Hello, I would appreciate it if you could give shrunken log2 fold change for each entry below.
1. RRIRTRPPRLPRPRPRPHADPRP
2. RRIRWRPPRLPRPRPRPFWYPRP
3. RRIRNRPPRLPRPRPRPMRKPRP
4. RRIRYRPPRLPRPRPRPPNKPRP
5. RRIRSRPPRLPRPRPRPVFNPRP
6. RRIRARPPRLPRPRPRPAQDPRP

-- reply
[0.0427, -0.214, 0.481, -0.585, -0.709, 0.232]

Where do the numbers come from? From the supplement of paper PMC9112550.
